These entries and their values trace back to the supplement of paper PMC7125110.

B1: glmS ribozyme (parent)
chain: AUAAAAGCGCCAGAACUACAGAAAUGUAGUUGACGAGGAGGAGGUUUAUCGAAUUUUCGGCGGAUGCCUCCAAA

variants of: B1; experiment: self-cleavage kobs at 2500 uM GlcN6P; higher = faster cleavage; RNA array; details: with glucosamine-6-phosphate
Fewer inactive variants are shown than the library holds.
parameter: self-cleavage kobs at 2500 uM GlcN6P (s⁻¹)
// note: answer is a bare numeric in s⁻¹

Illustrative cases are given below, each with its answer.
> print(dat)
      mutant.code  scale.unit  meas.value
1       U30G G40A         s⁻¹    0.000813
2       A52G U55A         s⁻¹    0.000757
3       A39U A42C         s⁻¹    0.000273
4  A15G C16G U55A         s⁻¹     0.00143

Would you kindly look at the next entry?
I have this variant here, C11U C50G C58A , and I need its recorded self-cleavage kobs at 2500 uM GlcN6P.
0.000242
